# EXPERIMENT_NOTES: Malodor coverage by individual fragrance materials (Table 1)
# TEST_SETTINGS: scale not defined
Note to self: Average Coverage under 3 means class 1, ties and anything higher get class 0.

1. CC(=O)OC/C=C(\C)CCC=C(C)C [GERANYL ACETATE]
class 1
2. CCc1ccc(CC(C)(C)C=O)cc1
class 0
3. COC(Cc1ccccc1)OC
class 0
4. OCCc1ccccc1
class 0
5. CC1CC(C)(c2ccccc2)CO1 (stereo not drawn)
class 1
6. CC(C)=CCCC(C)C=O (stereo not drawn)
class 1
7. CCC(C)(O)CCCC(C)C (stereo not drawn) [TETRAHYDRO LINAILOOL]
class 1
8. CC(=O)O[C@@H]1C[C@H]2CC[C@]1(C)C2(C)C (racemic) [ISO BORNYL ACETATE]
class 1
9. CC(C=O)Cc1ccc(C(C)(C)C)cc1 (stereo not drawn)
class 1
10. CC(C)C1CCC(CO)CC1 (stereo not drawn)
class 1

* * *

Quick list: Air Diffusion Coefficient per entry.
# EXPERIMENT_NOTES: Air diffusion coefficient of perfume materials
# Assay type: physicochemical
MEASURED_METRIC: Air Diffusion Coefficient (cm²/s)

1. METHYL IONONE GAMMA
0.0453
2. METHYL NAPTHYL KETONE [METHYL NAPTHYL KETONE 10%]
0.0552

* * *

# EXPERIMENT_NOTES: Malodor coverage by individual fragrance materials (Table 1)
# TEST_SETTINGS: scale not defined
MEASURED_METRIC: Average Coverage

1. CC/C(=C\CC1CC=C(C)C1(C)C)CO (centres unmarked)
3.3
2. C=CCOC(=O)CCCCCC [ALLYL HEPTOATE (C-7), ALLYL HEPTOATE]
2.6
3. CC(C)OCCc1ccccc1
2.6
4. CC(C)CCOCCc1ccccc1
2.6
5. CC(=O)c1cc2c(cc1C)C(C)(C)C(C)CC2(C)C (centres unmarked)
2.0
6. C[C@@H]1CC[C@H]2C(C)(C)[C@H]3C[C@@]12CC[C@@]3(C)O
3.3
7. C=CCc1ccc(OC)cc1
2.3
8. CCCCCCCCCCCC#N
3.0
9. CCCCCC1CCCC1=O (centres unmarked)
4.0
10. CCOC(=O)CC(C)=O [ETHYL ACETOACETATE]
1.6
11. CCCCCCC(C=O)=Cc1ccccc1
2.3

* * *

# EXPERIMENT_NOTES: Malodor coverage by individual fragrance materials (Table 1)
# TEST_SETTINGS: scale not defined
MEASURED_METRIC: Average Coverage

1. COc1ccc2ccccc2c1
2.6
2. OCCC1CCCCC1
2.0
3. c1ccc(CCOC2CCCCC2)cc1
2.3
4. CC(C)CC1CC(C)(O)CCO1 (stereo not shown)
3.0
5. CC(=O)OCC=C(C)C [PRENYL ACETATE]
1.0
6. CC(=O)C1(C)CC2=C(CCCC2(C)C)CC1C (stereo not shown)
3.3
7. C=CCOC(=O)CCC1CCCCC1 [ALLYL CYCLOHEXYL PROPIONATE]
2.6
8. CO[C@]1(C)CC[C@@]23C[C@@H]1C(C)(C)[C@@H]2CC[C@H]3C
2.3
9. CCCCCCCCCCC=CC#N
3.0
10. CC1CCC(C(C)(C)O)CC1 (stereo not shown) [DIHYDRO TERPINEOL]
2.0
